Property: Drug response score from blood sample, conc. 4; scope: individual compounds
Tested on: Circulating tumour cells (CTCs) from a patient with GI cancer (Cholangio Carcinoma, stage 4)
Protocol notes: Drug response score assay on blood sample, Example 9
Format: cell-based, human
Parameters: key: normalized drug response metric per Gupta et al. 2020
Particulars: conc. 4 of each drug as in Table 27; blood sample; t96h
No unit in the answer, please; the number alone is enough.

Example cases with answers are listed next.
- Compound string: "CC(=O)O[C@H]1C(=O)[C@@]2(C)[C@H]([C@H](OC(=O)c3ccccc3)[C@]3(O)C[C@H](OC(=O)[C@H](O)[C@@H](NC(=O)c4ccccc4)c4ccccc4)C(C)=C1C3(C)C)[C@]1(OC(C)=O)CO[C@@H]1C[C@@H]2O"
  Reported: 0.756
- Compound string: "COc1cc2nccc(Oc3ccc(NC(=O)NC4CC4)c(Cl)c3)c2cc1C(N)=O"
  Reported: 0.6214
- Compound string: "O=c1[nH]cc(F)c(=O)[nH]1"
  Reported: 0.08131

Below: the item to evaluate.
**Q:** What does the data say about its Drug response score from blood sample, conc. 4? Entry: CCc1c2c(nc3ccc(OC(=O)N4CCC(N5CCCCC5)CC4)cc13)-c1cc3c(c(=O)n1C2)COC(=O)[C@]3(O)CC
**A:** 0.5913

====

Tested on: Circulating Tumour Cells (CTCs) from a patient with colon cancer (sigmoid colon cancer)
Protocol notes: Drug response score assay on CTCs from blood, Example 8
Type: cell-based, human
Set-up: key: normalized drug response metric (Gupta et al. 2020)
Particulars: conc. 1 of each drug as in Table 24; CTCs; t96h
Rule: measured Drug response score, conc. 1 below -0.01 gets 1; anything equal to or greater than -0.01 gets -1.

**Q:** Quick check: Drug response score, conc. 1 of C=C1C[C@@H]2CC[C@@]34C[C@H]5O[C@H]6[C@@H](O3)[C@H]3O[C@H](CC[C@@H]3O[C@H]6[C@H]5O4)CC(=O)C[C@@H]3[C@@H](OC)[C@@H](C[C@H](O)CN)O[C@H]3C[C@H]3O[C@@H](CC[C@@H]1O2)C[C@@H](C)C3=C under -0.01?
**A:** -1

**Q:** Quick check: Drug response score, conc. 1 of N.N.O=C([O-])C1(C(=O)[O-])CCC1.[Pt+2] under -0.01?
**A:** -1

**Q:** Quick check: Drug response score, conc. 1 of CCC1=C[C@@H]2CN(C1)Cc1c([nH]c3ccccc13)[C@@](C(=O)OC)(c1cc3c(cc1OC)N(C)[C@H]1[C@@](O)(C(=O)OC)[C@H](OC(C)=O)[C@]4(CC)C=CCN5CC[C@]31[C@@H]54)C2 under -0.01?
**A:** -1

**Q:** Quick check: Drug response score, conc. 1 of COc1cc([C@@H]2c3cc4c(cc3[C@@H](O[C@@H]3O[C@@H]5CO[C@@H](C)O[C@H]5[C@H](O)[C@H]3O)[C@H]3COC(=O)[C@H]23)OCO4)cc(OC)c1O [Etoposide] under -0.01?
**A:** 1

**Q:** Quick check: Drug response score, conc. 1 of Cn1nnc2c(C(N)=O)ncn2c1=O [Temozolamide] under -0.01?
**A:** 1

**Q:** Quick check: Drug response score, conc. 1 of CC(=O)O[C@H]1C(=O)[C@@]2(C)[C@H]([C@H](OC(=O)c3ccccc3)[C@]3(O)C[C@H](OC(=O)[C@H](O)[C@@H](NC(=O)c4ccccc4)c4ccccc4)C(C)=C1C3(C)C)[C@]1(OC(C)=O)CO[C@@H]1C[C@@H]2O under -0.01?
**A:** 1

**Q:** Quick check: Drug response score, conc. 1 of Nc1nc2[nH]cc(CCc3ccc(C(=O)N[C@@H](CCC(=O)O)C(=O)O)cc3)c2c(=O)[nH]1 under -0.01?
**A:** -1

**Q:** Quick check: Drug response score, conc. 1 of O=P1(N(CCCl)CCCl)NCCCO1 (stereo not drawn) [Cyclophosphamide] under -0.01?
**A:** 1

====

Tested on: Circulating Tumour Cells (CTCs) from a patient with colon cancer (sigmoid colon cancer)
Protocol notes: Drug response score assay on CTCs from blood, Example 8
Type: cell-based, human
Particulars: conc. 4 of each drug as in Table 24; CTCs; t96h
Parameter measured: Drug response score, conc. 4
No unit in the answer, please; the number alone is enough.

Example cases with answers are listed next.
- Compound: "N.N.O=C([O-])C1(C(=O)[O-])CCC1.[Pt+2]"
  Drug response score, conc. 4: "−0.1322"
- Compound: "Cn1nnc2c(C(N)=O)ncn2c1=O [Temozolamide]"
  Drug response score, conc. 4: "−0.4687"

**Q:** Item CCC1=C[C@@H]2CN(C1)Cc1c([nH]c3ccccc13)[C@@](C(=O)OC)(c1cc3c(cc1OC)N(C)[C@H]1[C@@](O)(C(=O)OC)[C@H](OC(C)=O)[C@]4(CC)C=CCN5CC[C@]31[C@@H]54)C2 with Circulating Tumour Cells (CTCs) from a patient with colon cancer (sigmoid colon cancer) - Drug response score, conc. 4?
**A:** −0.5738

====

System: Circulating Tumour Cells (CTCs) from a patient with lung cancer (adenocarcinoma)
Protocol notes: Drug response score assay on CTCs (with CD45+ cells for immunotherapy) from blood, Example 5
Type: cell-based, human
Particulars: lung cancer CTCs, Table 17
Parameter measured: Drug sensitivity as calculated by the assay (interpretation of Drug Response Scores)

Example cases with answers are listed next.
- Compound: "COc1cc2ncnc(Nc3ccc(F)c(Cl)c3)c2cc1OCCCN1CCOCC1"
  Reported: "S+"
- Compound: "CCC1=C[C@@H]2CN(C1)Cc1c([nH]c3ccccc13)[C@@](C(=O)OC)(c1cc3c(cc1OC)N(C)[C@H]1[C@@](O)(C(=O)OC)[C@H](OC(C)=O)[C@]4(CC)C=CCN5CC[C@]31[C@@H]54)C2"
  Reported: "S++"
- Compound: "C[C@@H](Oc1cc(-c2cnn(C3CCNCC3)c2)cnc1N)c1c(Cl)ccc(F)c1Cl"
  Reported: "S++"
- Compound: "Nc1ccn([C@@H]2O[C@H](CO)[C@@H](O)C2(F)F)c(=O)n1"
  Reported: "S++"

**Q:** What does the data say about its Drug sensitivity as calculated by the assay (interpretation of Drug Response Scores)? Entry: C#Cc1cccc(Nc2ncnc3cc(OCCOC)c(OCCOC)cc23)c1
**A:** S+

**Q:** What does the data say about its Drug sensitivity as calculated by the assay (interpretation of Drug Response Scores)? Entry: CN(Cc1cnc2nc(N)nc(N)c2n1)c1ccc(C(=O)N[C@@H](CCC(=O)O)C(=O)O)cc1 [Methotrexate]
**A:** S++

====

Tested on: Circulating Tumour Cells (CTCs) from a patient with head and neck cancer (squamous cell carcinoma)
Protocol notes: Drug response score assay on CTCs from blood, Example 6
Assay type: cell-based, human
Particulars: conc. 3: Ifos 5 μg/ml, Gemcit 20 μg/ml, Doxo 90 ng/ml, Etop 20 μg/ml, Metho 2 μg/ml, Capecit 400 μg/ml, Vinor 80 μg/ml; CTCs; t96h
Parameter measured: Drug response score, conc. 3
No unit in the answer, please; the number alone is enough.

**Q:** What does the data say about its Drug response score, conc. 3? Entry: CCC1=C[C@@H]2CN(C1)Cc1c([nH]c3ccccc13)[C@@](C(=O)OC)(c1cc3c(cc1OC)N(C)[C@H]1[C@@](O)(C(=O)OC)[C@H](OC(C)=O)[C@]4(CC)C=CCN5CC[C@]31[C@@H]54)C2
**A:** 0.4733

**Q:** What does the data say about its Drug response score, conc. 3? Entry: CCCCCOC(=O)Nc1nc(=O)n([C@@H]2O[C@H](C)[C@@H](O)[C@H]2O)cc1F
**A:** 0.6113

====

Tested on: Circulating Tumour Cells (CTCs) from a patient with renal cancer
Protocol notes: Drug response score assay on CTCs (with CD45+ cells for immunotherapy) from blood, Example 7
Type: cell-based, human
Particulars: renal cancer CTCs, Table 23
Parameter measured: Drug sensitivity as calculated by the assay (interpretation of Drug Response Scores)

- Molecule: "Nc1ccn([C@@H]2O[C@H](CO)[C@@H](O)C2(F)F)c(=O)n1"
  Reported: "Sensitive (S++)"
- Molecule: "CC[C@@]1(O)C(=O)OCc2c1cc1n(c2=O)Cc2cc3c(CN(C)C)c(O)ccc3nc2-1"
  Reported: "Sensitive (S++)"
- Molecule: "CC(=O)O[C@@]12CO[C@@H]1C[C@H](O)[C@@]1(C)C(=O)[C@H](O)C3=C(C)[C@@H](OC(=O)[C@H](O)[C@@H](NC(=O)OC(C)(C)C)c4ccccc4)C[C@@](O)([C@@H](OC(=O)c4ccccc4)[C@H]21)C3(C)C"
  Reported: "Sensitive (S+)"
- Molecule: "C=C1C[C@@H]2CC[C@@]34C[C@H]5O[C@H]6[C@@H](O3)[C@H]3O[C@H](CC[C@@H]3O[C@H]6[C@H]5O4)CC(=O)C[C@@H]3[C@@H](OC)[C@@H](C[C@H](O)CN)O[C@H]3C[C@H]3O[C@@H](CC[C@@H]1O2)C[C@@H](C)C3=C"
  Reported: "Sensitive (S+)"

**Q:** What does the data say about its Drug sensitivity as calculated by the assay (interpretation of Drug Response Scores)? Entry: COc1cc([C@@H]2c3cc4c(cc3[C@@H](O[C@@H]3O[C@@H]5CO[C@@H](C)O[C@H]5[C@H](O)[C@H]3O)[C@H]3COC(=O)[C@H]23)OCO4)cc(OC)c1O [Etoposide]
**A:** Sensitive (S++)

Recorded values, source patent US20250290915A1.
